Reference source for all entries: patent US20150307520A1

# TARGET DESC: p110δ/p85α (Homo sapiens, UniProt O00329)
# Sequence (O00329 whole entry): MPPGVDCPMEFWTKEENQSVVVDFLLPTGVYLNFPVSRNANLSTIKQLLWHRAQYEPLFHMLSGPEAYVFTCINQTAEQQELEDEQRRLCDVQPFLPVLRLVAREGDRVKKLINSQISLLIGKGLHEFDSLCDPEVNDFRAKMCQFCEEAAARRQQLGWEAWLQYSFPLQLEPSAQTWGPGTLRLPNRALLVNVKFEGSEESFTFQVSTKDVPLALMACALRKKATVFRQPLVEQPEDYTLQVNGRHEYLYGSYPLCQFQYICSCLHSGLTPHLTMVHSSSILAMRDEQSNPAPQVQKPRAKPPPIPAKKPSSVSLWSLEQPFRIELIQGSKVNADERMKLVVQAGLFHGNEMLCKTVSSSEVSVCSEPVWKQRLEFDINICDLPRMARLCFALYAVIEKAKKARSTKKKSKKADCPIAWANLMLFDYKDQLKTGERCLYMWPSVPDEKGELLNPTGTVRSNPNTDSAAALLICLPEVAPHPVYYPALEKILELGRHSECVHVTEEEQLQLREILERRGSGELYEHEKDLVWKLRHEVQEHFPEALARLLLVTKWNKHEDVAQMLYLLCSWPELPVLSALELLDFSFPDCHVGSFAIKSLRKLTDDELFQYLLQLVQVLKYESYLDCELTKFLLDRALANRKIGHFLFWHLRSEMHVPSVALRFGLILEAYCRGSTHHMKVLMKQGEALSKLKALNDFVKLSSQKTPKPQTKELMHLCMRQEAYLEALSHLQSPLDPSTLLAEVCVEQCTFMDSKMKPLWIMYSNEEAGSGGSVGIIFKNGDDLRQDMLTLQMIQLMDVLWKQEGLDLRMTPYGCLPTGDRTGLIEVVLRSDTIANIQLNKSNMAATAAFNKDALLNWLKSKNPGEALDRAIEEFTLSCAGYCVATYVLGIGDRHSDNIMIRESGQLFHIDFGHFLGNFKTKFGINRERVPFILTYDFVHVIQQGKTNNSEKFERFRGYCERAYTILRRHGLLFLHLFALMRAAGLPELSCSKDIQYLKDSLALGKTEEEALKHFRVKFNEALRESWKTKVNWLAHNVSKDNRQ
# Sequence (P27986 whole entry partner): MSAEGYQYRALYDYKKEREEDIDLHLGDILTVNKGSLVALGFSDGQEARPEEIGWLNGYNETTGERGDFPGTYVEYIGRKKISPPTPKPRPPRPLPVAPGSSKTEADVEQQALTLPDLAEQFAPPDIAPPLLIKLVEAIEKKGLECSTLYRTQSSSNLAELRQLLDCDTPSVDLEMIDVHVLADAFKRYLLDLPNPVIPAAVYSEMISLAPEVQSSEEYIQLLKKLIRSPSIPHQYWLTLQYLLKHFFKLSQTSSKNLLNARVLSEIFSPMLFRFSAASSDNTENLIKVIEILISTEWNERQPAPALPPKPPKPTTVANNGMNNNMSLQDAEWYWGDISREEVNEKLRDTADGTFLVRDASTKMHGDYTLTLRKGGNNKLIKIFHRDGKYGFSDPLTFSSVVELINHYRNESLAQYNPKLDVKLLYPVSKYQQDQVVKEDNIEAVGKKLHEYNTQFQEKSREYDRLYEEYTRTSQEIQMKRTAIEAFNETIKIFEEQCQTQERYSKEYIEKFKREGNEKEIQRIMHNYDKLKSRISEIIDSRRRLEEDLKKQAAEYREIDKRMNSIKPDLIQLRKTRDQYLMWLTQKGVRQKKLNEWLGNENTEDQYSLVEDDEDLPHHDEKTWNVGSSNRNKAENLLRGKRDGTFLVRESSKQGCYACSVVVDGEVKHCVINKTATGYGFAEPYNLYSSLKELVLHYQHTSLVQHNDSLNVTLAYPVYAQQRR
# MEASUREMENT PROTOCOL: Transcreener KINASE Assay, kinase inhibition of p110δ/p85α
# Type: biochemical
# CONDITION CONTEXT: 1 uM test compound
METRIC NAME: PI3Kδ IH % @ 1 uM (%)
Response body: numeric value in %, unit text excluded.

CC(=O)c1cnc(N)nc1N1CC[C@H]1c1nn2c(C)cc(Cl)c2c(=O)n1-c1ccccc1 :: 49.2

// next entry
Find the measured PI3Kδ IH % @ 1 uM: item `NC(=O)c1c[nH]c2ncnc(N3CCC[C@H]3c3nn4ccc(Cl)c4c(=O)n3-c3ccccc3)c12` , target or system p110δ/p85α (Homo sapiens, UniProt O00329).
97.6
